biological target: C5 (Homo sapiens, UniProt P01031); assay: Human hemolysis assay (RBC lysis assay using complete human sera); assay type: cell-based; parameters: with complete human sera (Complement Technology, Tyler Tex.) and polypeptides; tissue Complement Technology, Tyler Tex; host or cells: complete human serum; conditions: inhibition of lysis of antibody-sensitized sheep erythrocytes, complete human sera
Sequence (P01031 19-1676): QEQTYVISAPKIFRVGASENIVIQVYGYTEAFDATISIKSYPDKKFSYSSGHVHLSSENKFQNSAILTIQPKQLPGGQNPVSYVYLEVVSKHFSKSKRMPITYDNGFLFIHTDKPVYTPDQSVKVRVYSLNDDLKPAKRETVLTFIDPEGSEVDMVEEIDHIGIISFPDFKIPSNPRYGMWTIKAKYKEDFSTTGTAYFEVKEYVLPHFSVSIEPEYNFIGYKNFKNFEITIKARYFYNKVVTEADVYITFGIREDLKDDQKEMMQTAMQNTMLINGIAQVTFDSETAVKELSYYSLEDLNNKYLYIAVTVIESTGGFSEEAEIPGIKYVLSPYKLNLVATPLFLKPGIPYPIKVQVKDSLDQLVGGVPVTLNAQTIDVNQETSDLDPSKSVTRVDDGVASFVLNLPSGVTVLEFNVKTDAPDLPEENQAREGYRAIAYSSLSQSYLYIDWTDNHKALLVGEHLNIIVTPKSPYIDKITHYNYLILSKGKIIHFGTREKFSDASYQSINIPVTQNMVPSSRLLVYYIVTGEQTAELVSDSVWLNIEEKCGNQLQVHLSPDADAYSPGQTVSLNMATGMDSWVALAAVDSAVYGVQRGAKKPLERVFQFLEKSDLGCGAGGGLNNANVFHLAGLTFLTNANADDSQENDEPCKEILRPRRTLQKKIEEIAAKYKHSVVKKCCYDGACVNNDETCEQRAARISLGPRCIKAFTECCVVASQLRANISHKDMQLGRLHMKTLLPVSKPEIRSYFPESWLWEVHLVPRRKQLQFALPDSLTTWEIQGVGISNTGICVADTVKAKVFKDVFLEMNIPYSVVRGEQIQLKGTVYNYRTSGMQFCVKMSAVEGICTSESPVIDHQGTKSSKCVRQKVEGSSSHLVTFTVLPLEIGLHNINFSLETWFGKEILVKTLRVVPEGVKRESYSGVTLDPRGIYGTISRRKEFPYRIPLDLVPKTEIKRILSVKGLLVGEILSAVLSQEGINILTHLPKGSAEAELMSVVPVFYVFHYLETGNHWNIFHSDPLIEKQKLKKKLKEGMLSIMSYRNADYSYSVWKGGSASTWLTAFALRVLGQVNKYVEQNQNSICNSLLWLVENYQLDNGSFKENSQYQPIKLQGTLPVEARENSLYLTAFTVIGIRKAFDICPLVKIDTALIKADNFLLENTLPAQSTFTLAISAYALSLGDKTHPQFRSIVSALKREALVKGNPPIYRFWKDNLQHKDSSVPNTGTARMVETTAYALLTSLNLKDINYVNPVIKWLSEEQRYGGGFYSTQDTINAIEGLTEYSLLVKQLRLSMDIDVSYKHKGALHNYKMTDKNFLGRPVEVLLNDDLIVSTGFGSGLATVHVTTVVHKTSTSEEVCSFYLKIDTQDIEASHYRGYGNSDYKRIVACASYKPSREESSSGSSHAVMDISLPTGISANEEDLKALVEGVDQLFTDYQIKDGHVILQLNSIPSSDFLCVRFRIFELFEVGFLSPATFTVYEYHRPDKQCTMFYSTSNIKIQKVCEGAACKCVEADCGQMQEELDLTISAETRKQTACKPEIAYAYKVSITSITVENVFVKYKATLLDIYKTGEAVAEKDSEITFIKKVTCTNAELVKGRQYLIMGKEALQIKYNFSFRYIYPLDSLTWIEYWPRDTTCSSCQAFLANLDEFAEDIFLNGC
Starred links: 1 amine or outer side, 2 acyl side, 3 side chain; linkers in the order of their positions; H or OH if unused. Positions of bridges follow the written chain, without caps; N, C: chain ends. Non-standard residues stand in square brackets, D forms with d. Residues, ends and D or L forms follow the SMILES beside them. Trp(7-aza) = N[C@@H](Cc1c[nH]c2ncccc12)C(=O)O; mXylylene = c1cc(C[*:1])cc(C[*:2])c1; Phg = N[C@H](C(=O)O)c1ccccc1; Tle = CC(C)(C)[C@H](N)C(=O)O; NMeS = CN[C@@H](CO)C(=O)O; Nva = CCC[C@H](N)C(=O)O; Sar = CNCC(=O)O
Quantity: IC50 (nM)
Give the value, in units of nM, as a plain number.

Compound: CCC[C@H](NC(=O)[C@@H]1CSCc2cccc(c2)CSC[C@H](NC(=O)[C@H](CCC)NC(C)=O)C(=O)N[C@@H](c2ccccc2)C(=O)N[C@@H]([C@@H](C)O)C(=O)N[C@@H](Cc2c[nH]c3ncccc23)C(=O)N[C@@H](CCC(=O)O)C(=O)N[C@@H](Cc2ccc(OC)cc2)C(=O)N(C)[C@@H](CO)C(=O)N[C@@H](Cc2c[nH]cn2)C(=O)N1)C(N)=O [Compound R3074] (Ac-[Nva]C[Phg]T[Trp(7-aza)]EY(Me)[NMeS]HC[Nva]-NH2; linker 2-10 via mXylylene)
IC50 (nM): 308

Next compound, IC50 to be filled in.
Please provide the recorded IC50 for CCC[C@H](NC(=O)CN(C)C(=O)[C@H](Cc1ccc(O)cc1)NC(=O)[C@H](CCC(=O)O)NC(=O)[C@H](Cc1c[nH]c2ncccc12)NC(=O)[C@H](Cc1ccc(O)cc1)NC(=O)[C@@H](NC(=O)[C@H](CC(N)=O)NC(=O)[C@H](CCC(=O)O)NC(=O)[C@H](Cc1ccc(O)cc1)NC(C)=O)C(C)(C)C)C(=O)N(C)[C@@H](CO)C(N)=O [Compound R3006] (Ac-YEN[Tle]Y[Trp(7-aza)]EY[Sar][Nva][NMeS]-NH2) , tested on C5 (Homo sapiens, UniProt P01031). 267

* * *

molecular target: UniProt:P01031; experiment: Human hemolysis assay (RBC lysis assay using complete human sera); type: cell-based; parameters: with complete human sera (Complement Technology, Tyler Tex.) and polypeptides; tissue Complement Technology, Tyler Tex; host or cells: complete human serum; conditions: inhibition of lysis of antibody-sensitized sheep erythrocytes, complete human sera
Starred links: 1 amine or outer side, 2 acyl side, 3 side chain; linkers in the order of their positions; H or OH if unused. Positions of bridges follow the written chain, without caps; N, C: chain ends. Non-standard residues stand in square brackets, D forms with d. Residues, ends and D or L forms follow the SMILES beside them. Trp(7-aza) = N[C@@H](Cc1c[nH]c2ncccc12)C(=O)O; mXylylene = c1cc(C[*:1])cc(C[*:2])c1; Phg = N[C@H](C(=O)O)c1ccccc1; Tle = CC(C)(C)[C@H](N)C(=O)O; NMeS = CN[C@@H](CO)C(=O)O; Nva = CCC[C@H](N)C(=O)O; Sar = CNCC(=O)O
IC50 overview

Study these solved cases before continuing.
Molecule: CSCC[C@H](N)C(=O)N[C@H]1CSCc2cccc(c2)CSC[C@@H](C(=O)N[C@@H](CC(=O)O)C(=O)N[C@H](C(=O)N[C@@H](Cc2ccc(O)cc2)C(=O)N[C@@H](Cc2c[nH]c3ccccc23)C(=O)N[C@@H](CCC(=O)O)C(N)=O)C(C)C)NC(=O)[C@H](Cc2ccccc2)NC(=O)[C@H](CCCNC(=N)N)NC(=O)[C@H](CCC(=O)O)NC(=O)[C@H](C(C)C)NC1=O [Compound R3043, [mXylyl(2,7)]M-C-V-E-R-F-C-D-V-Y-W-E-NE2] (H-MCVERFCDVYWE-NH2; linker 2-7 via mXylylene)
Quantity: IC50
Measurement: 0.934 µM
--
Molecule: CCC[C@H](NC(C)=O)C(=O)N[C@@H](CS)C(=O)N[C@@H](Cc1ccc(O)cc1)C(=O)N[C@@H](CCCCN)C(=O)N[C@@H](CC(N)=O)C(=O)N[C@@H](Cc1ccc(O)cc1)C(=O)N[C@@H](Cc1c[nH]cn1)C(=O)N[C@@H](Cc1c[nH]c2ncccc12)C(=O)N[C@@H](CCC(=O)O)C(=O)N[C@@H](Cc1ccc(O)cc1)C(=O)N1CCC[C@H]1C(=O)N[C@H](C(=O)N[C@@H](Cc1ccc(O)cc1)C(N)=O)C(C)(C)C [Compound R3000] (Ac-[Nva]CYKNYH[Trp(7-aza)]EYP[Tle]Y-NH2)
Quantity: IC50
Measurement: > 10 µM
--
Molecule: CCC[C@H](NC(C)=O)C(=O)N[C@H]1CSCc2cccc(c2)CSC[C@@H](C(N)=O)NC(=O)[C@@H]2CCCN2C(=O)[C@H](CCC)NC(=O)[C@H](CCC)NC(=O)[C@H](CCC(=O)O)NC(=O)[C@H](Cc2c[nH]c3ncccc23)NC(=O)[C@H](Cc2ccc(O)cc2)NC(=O)[C@H](C(C)(C)C)NC(=O)CN(C)C(=O)[C@H](CCC(=O)O)NC(=O)[C@H](Cc2ccc(O)cc2)NC1=O [Compound R3010] (Ac-[Nva]CYE[Sar][Tle]Y[Trp(7-aza)]E[Nva][Nva]PC-NH2; linker 2-13 via mXylylene)
Quantity: IC50
Measurement: > 100 µM

Next molecule, IC50 to be filled in.
Please provide the recorded IC50 for CCC[C@H](NC(=O)[C@@H]1CSCc2cccc(c2)CSC[C@H](NC(=O)[C@H](CCC)NC(C)=O)C(=O)N[C@@H](c2ccccc2)C(=O)N[C@@H]([C@@H](C)O)C(=O)N[C@@H](Cc2c[nH]c3ncccc23)C(=O)N[C@@H](C)C(=O)N[C@@H](Cc2ccc(O)cc2)C(=O)N(C)[C@@H](CO)C(=O)N[C@@H](Cc2c[nH]cn2)C(=O)N1)C(N)=O [Compound R3035] (Ac-[Nva]C[Phg]T[Trp(7-aza)]AY[NMeS]HC[Nva]-NH2; linker 2-10 via mXylylene) , tested on UniProt:P01031. > 50 µM

Recorded values, source patent US10208089B2.
